target: DNA topoisomerase 2-alpha (Homo sapiens, UniProt P11388); assay: Inhibition of human topoisomerase 2 alpha-mediated decatenation of kDNA at 100 uM by agarose gel electrophoresis
Sequence (P11388 whole entry): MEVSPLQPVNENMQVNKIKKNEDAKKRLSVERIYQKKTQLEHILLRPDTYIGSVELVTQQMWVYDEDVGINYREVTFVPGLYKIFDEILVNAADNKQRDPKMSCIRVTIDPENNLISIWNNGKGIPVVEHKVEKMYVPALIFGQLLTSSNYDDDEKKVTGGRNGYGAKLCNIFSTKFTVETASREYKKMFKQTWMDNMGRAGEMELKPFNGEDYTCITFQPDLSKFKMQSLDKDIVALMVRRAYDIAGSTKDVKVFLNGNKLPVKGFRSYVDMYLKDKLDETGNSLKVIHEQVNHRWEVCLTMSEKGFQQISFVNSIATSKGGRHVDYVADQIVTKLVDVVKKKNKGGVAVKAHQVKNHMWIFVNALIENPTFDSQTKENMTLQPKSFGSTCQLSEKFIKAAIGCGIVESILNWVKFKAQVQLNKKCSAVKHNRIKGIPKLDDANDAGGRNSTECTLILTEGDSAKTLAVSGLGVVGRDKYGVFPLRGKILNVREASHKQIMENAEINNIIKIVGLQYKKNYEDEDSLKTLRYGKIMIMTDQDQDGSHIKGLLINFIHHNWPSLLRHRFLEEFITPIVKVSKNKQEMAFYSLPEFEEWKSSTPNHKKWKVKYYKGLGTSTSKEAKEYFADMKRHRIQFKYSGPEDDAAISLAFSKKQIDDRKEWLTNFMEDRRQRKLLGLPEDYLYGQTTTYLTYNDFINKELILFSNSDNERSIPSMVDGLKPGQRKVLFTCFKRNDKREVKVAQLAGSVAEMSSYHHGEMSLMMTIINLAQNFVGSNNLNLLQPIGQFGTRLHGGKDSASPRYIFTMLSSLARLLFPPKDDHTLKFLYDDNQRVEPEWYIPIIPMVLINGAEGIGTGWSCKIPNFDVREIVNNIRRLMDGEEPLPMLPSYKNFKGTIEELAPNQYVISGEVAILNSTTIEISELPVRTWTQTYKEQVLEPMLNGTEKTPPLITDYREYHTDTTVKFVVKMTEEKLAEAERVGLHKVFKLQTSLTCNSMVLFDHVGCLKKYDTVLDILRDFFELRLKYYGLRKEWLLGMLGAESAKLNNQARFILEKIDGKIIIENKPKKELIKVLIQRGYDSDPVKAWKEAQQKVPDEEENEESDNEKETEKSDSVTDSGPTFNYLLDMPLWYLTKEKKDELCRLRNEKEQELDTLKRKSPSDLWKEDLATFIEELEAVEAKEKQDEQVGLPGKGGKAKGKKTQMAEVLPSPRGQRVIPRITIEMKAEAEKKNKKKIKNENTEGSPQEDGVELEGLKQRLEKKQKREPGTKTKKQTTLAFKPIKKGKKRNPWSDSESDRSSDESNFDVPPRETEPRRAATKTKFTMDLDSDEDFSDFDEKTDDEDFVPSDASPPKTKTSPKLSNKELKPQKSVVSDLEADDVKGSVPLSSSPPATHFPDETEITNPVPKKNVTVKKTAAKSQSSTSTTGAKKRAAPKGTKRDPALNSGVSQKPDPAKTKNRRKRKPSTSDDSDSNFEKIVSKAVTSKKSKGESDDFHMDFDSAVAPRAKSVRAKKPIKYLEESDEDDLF
Activity calls are given as the source filed them. The calls are words filed in the database; no cut-off is given here.
// allowed return values: 1.0 = active, 0.0 = inactive

Hey, what did the test say about COc1cccc(-c2nc3cnccn3c2NC(C)(C)C)c1 ?
0.0

Hey, what did the test say about COc1ccc(-c2nc3cnccn3c2N)cc1 ?
1.0

----------
target: DNA topoisomerase 2-alpha (Homo sapiens); assay: Inhibition of human topoisomerase 2 alpha-mediated decatenation of kDNA by agarose gel electrophoresis
Assay Endpoint: pIC50
pIC50 field: float, defined as -log10 of concentration (mol/L).

The value of pIC50 measured for the compound CC(C)(C)Nc1c(-c2ccc(C(=O)O)cc2)nc2ccccn12 turned out to be 4.28

----------
molecular target: UniProt P11388; assay: Inhibition of etoposide poisoning activity against human recombinant DNA topoisomerase 2alpha assessed as enhancement of in relaxation of supercoiled plasmid pBR322 DNA at 100 uM after 30 mins by agarose gel electrophoresis
Active and inactive are the calls of the source. The calls are words filed in the database; no cut-off is given here.
// allowed return values: yes for active, no for inactive

Answered examples (4):
CCOC(=O)c1cnn2c(NC(C)(C)C)c(-c3ccc(Cl)cc3)[nH]c12; no
CC(C)(C)Nc1c(-c2ccc(C(=O)O)cc2)nc2ccccn12; no
CCOC(=O)c1cnn2c(N)c(-c3ccc(Cl)cc3)[nH]c12; no
CC(C)(C)Nc1c(-c2ccc(Cl)cc2)nc2cnccn12; no

Hey, what did the test say about Nc1c(-c2ccc(Cl)cc2)nc2cnccn12 ?
no

Hey, what did the test say about COc1cc([C@@H]2c3cc4c(cc3[C@@H](O[C@@H]3O[C@@H]5CO[C@@H](C)O[C@H]5[C@H](O)[C@H]3O)[C@H]3COC(=O)[C@H]23)OCO4)cc(OC)c1O [ETOPOSIDE] ?
yes

----------
test: Anticlonogenic activity against african green monkey Vero after 48 hrs by crystal violet staining; assay type: ADME, cell-based; settings: chlorocebus sabaeus, Vero cells; read-out: LC50
Label Satisfied when CC50 at 48 h < 60 µM; otherwise Not satisfied.

API: query returns whether the compound falls strictly under 60 µM in CC50 at 48 h. Query: CCOC(=O)c1cnn2c(N)c(-c3ccc(Cl)cc3)[nH]c12
Not satisfied

API: query returns whether the compound falls strictly under 60 µM in CC50 at 48 h. Query: CC(C)(C)Nc1c(-c2ccc(Cl)cc2)nc2cnccn12
Satisfied

API: query returns whether the compound falls strictly under 60 µM in CC50 at 48 h. Query: CC(C)(C)Nc1c(-c2ccc(C(=O)O)cc2)nc2ccccn12
Not satisfied

API: query returns whether the compound falls strictly under 60 µM in CC50 at 48 h. Query: Nc1c(-c2ccc(Cl)cc2)nc2cnccn12
Satisfied

API: query returns whether the compound falls strictly under 60 µM in CC50 at 48 h. Query: CCOC(=O)c1cnn2c(NC(C)(C)C)c(-c3ccc(Cl)cc3)[nH]c12
Satisfied

----------
target: DNA topoisomerase 2-alpha (Homo sapiens, UniProt P11388); assay: Inhibition of human topoisomerase 2 alpha-mediated decatenation of kDNA at 100 uM by agarose gel electrophoresis
Calls of active or inactive are those of the source. No cut-off for these calls is given here.
// allowed return values: class 1 = active, class 0 = inactive

Answered examples (4):
CC(C)(C)Nc1nc2ncccn2c1-c1ccc(C#N)cc1; class 0
CC(C)(C)Nc1c(-c2ccc(C(=O)O)cc2)nc2cnccn12; class 0
CC(C)(C)Nc1c(-c2cccc3ccccc23)nc2ccccn12; class 1
CC(C)(C)Nc1c(-c2ccccc2)nc2cnccn12; class 0

Hey, what did the test say about CN(C)c1ccc(-c2nc3ccccn3c2NC(C)(C)C)cc1 ?
class 1

Hey, what did the test say about CC(C)(C)Nc1c(-c2ccccc2Cl)nc2cnccn12 ?
class 1

Hey, what did the test say about CC(C)(C)Nc1c(-c2ccc(Cl)cc2)nc2ncccn12 ?
class 1

Hey, what did the test say about CCOC(=O)c1cnn2c(NC3CCCCC3)c(-c3ccc(Cl)cc3)[nH]c12 ?
class 1

Hey, what did the test say about CC(C)(C)Nc1c(-c2ccc(C(=O)O)cc2)nc2ccccn12 ?
class 1

----------
test: Cytotoxicity against human MCF10A cells assessed as cell survival at 100 uM after 48 hrs by MTT assay; format: cell-based, MCF-10A; details: read-out: Survival
Assay Endpoint: viability at 48 h, 100 µM (%)
Please state the figure in %; there is no need to write the unit.

The value of viability at 48 h, 100 µM measured for the compound CC(C)(C)Nc1c(-c2ccc(C(=O)O)cc2)nc2ccccn12 turned out to be 75

----------
molecular target: DNA topoisomerase 2-alpha (Homo sapiens); assay: Competitive inhibition of human topoisomerase-2 alpha-ATPase activity by Lineweaver-Burk assay in presence of 200 to 520 uM ATP
Assay Endpoint: pKi
pKi field: float, defined as -log10 of concentration (mol/L).

Entry CC(C)(C)Nc1c(-c2ccc(C(=O)O)cc2)nc2ccccn12 , DNA topoisomerase 2-alpha (Homo sapiens) data, pKi value: 4.12

----------
target: DNA topoisomerase 2-alpha (Homo sapiens, UniProt P11388); assay: Inhibition of human topoisomerase 2 alpha-mediated decatenation of kDNA at 100 uM by agarose gel electrophoresis
Activity calls are given as the source filed them. The rule behind the calls is not given here.
// allowed return values: Yes for active, No for inactive

Answered examples (5):
Nc1c(-c2ccccn2)nc2ccc(Cl)cn12; No
CC(C)(C)Nc1cnc2ccccn12; No
CC(C)(C)Nc1c(-c2ccc(F)cc2)nc2ccc(Cl)cn12; Yes
CCCc1nc2ccccn2c1NC(C)(C)C; No
Nc1c(-c2ccc(Cl)cc2)nc2ccccn12; Yes

Hey, what did the test say about CCOC(=O)c1cnn2c(NC(C)(C)C)c(-c3ccc(Cl)cc3)[nH]c12 ?
Yes

Hey, what did the test say about N#Cc1ccc(-c2nc3ccc(Br)cn3c2N)cc1 ?
Yes

Hey, what did the test say about CC(C)(C)Nc1c(-c2ccc[nH]2)nc2ccccn12 ?
No

Hey, what did the test say about CC(C)(C)Nc1c(-c2ccc(Cl)cc2)nc2cnccn12 ?
Yes

Hey, what did the test say about CC(C)(C)Nc1c(-c2ccccn2)nc2ccccn12 ?
Yes

Hey, what did the test say about Nc1c(-c2ccc(Cl)cc2)nc2cnccn12 ?
Yes

Hey, what did the test say about CCOC(=O)c1cnn2c(N)c(-c3ccc(Cl)cc3)[nH]c12 ?
Yes

Hey, what did the test say about Cc1ccn2c(NC(C)(C)C)c(-c3ccc(Cl)cc3)nc2c1 ?
No

Hey, what did the test say about CC(C)(C)Nc1c(-c2ccc(Cl)cc2)nc2ccccn12 ?
No

Hey, what did the test say about CC(C)(C)Nc1c(-c2ccc(Cl)cc2)nc2[nH]c3ccccc3n12 ?
Yes

----------
molecular target: DNA topoisomerase 2-alpha (Homo sapiens); test: Inhibition of human topoisomerase 2 alpha-mediated decatenation of kDNA at 100 uM by agarose gel electrophoresis
The source made the active and inactive calls. The rule behind the calls is not given here.
Assay Endpoint: inhibition

CC(C)(C)Nc1cnc2cnccn12; inactive
Clc1ccc(-c2nc3cnccn3c2NC2CCCCC2)cc1; inactive
